Measured inhibition, listed per entry for reference.
Target Desc: CCN2-EGFR (Homo sapiens) (UniProt P00533+P29279)
Sequence (P00533 whole entry, looked up, the tested form may be a part): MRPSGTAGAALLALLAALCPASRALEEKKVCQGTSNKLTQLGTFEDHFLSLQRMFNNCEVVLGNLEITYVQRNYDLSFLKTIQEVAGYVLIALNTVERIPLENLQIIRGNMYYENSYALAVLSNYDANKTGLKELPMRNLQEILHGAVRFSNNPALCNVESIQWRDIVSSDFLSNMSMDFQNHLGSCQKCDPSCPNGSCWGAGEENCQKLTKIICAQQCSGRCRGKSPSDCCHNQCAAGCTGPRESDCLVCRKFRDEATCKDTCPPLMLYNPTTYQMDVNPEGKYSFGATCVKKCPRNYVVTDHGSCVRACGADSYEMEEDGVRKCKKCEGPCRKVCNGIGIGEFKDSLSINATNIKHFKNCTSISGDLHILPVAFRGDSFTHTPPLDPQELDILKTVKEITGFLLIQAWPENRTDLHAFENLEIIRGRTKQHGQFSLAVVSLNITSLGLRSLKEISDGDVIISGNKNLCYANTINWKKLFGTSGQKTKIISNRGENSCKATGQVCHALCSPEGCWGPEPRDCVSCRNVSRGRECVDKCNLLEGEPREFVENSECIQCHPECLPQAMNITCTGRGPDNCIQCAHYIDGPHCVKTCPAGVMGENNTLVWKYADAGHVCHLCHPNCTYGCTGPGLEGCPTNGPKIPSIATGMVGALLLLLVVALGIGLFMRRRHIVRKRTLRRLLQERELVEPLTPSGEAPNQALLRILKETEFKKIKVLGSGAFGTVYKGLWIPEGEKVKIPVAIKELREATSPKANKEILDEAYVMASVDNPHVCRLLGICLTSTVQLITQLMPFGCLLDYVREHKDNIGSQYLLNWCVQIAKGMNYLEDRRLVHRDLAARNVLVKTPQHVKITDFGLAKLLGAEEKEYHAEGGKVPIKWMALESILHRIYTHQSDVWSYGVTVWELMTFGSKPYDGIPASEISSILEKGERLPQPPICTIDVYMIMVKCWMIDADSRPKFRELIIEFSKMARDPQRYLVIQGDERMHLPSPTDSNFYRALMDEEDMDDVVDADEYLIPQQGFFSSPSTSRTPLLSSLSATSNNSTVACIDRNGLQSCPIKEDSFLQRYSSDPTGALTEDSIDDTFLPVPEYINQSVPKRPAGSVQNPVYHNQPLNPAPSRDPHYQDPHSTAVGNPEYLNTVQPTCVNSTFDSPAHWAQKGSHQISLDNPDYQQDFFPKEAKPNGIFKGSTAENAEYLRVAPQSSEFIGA
Sequence (P29279 whole entry, looked up, the tested form may be a part): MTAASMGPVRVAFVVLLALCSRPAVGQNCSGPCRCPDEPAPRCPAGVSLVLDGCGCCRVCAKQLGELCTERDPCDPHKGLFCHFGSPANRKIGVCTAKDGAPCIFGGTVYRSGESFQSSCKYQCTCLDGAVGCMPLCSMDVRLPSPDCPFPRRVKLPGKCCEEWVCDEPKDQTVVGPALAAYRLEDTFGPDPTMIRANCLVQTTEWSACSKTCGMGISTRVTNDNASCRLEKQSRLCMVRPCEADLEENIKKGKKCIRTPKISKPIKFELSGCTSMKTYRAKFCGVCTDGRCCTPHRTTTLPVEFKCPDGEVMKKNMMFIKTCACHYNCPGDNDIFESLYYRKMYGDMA
Procedure Details: Inhibition of His-tagged full length human CCN2 CT domain/human Fc-tagged EGFR protein-protein interaction using TMB as chromogenic substrate at 100 uM incubated for 140 mins by microplate reader assay relative to control
Peptide text beside a SMILES is read from it.
Property Name: inhibition (%)

>>> observed_result("CC(C)C[C@H](NC(=O)[C@H](C)N)C(=O)N[C@@H](C)C(=O)N[C@@H](CC(=O)O)C(=O)N[C@H](C(=O)N[C@H](C(=O)N[C@@H](Cc1c[nH]cn1)C(=O)N[C@@H](Cc1c[nH]cn1)C(=O)N[C@@H](CCCNC(=N)N)C(=O)N1CCC[C@H]1C(=O)N[C@@H](Cc1c[nH]c2ccccc12)C(=O)N[C@H](C(N)=O)[C@@H](C)O)[C@@H](C)O)[C@@H](C)O (H-ALADTTHHRPWT-NH2)")
70.8
>>> observed_result("CC(C)C[C@H](NC(=O)[C@@H](N)CC(C)C)C(=O)N[C@@H](C)C(=O)N[C@@H](CC(=O)O)C(=O)N[C@H](C(=O)N[C@H](C(=O)N[C@@H](Cc1c[nH]cn1)C(=O)N[C@@H](Cc1c[nH]cn1)C(=O)N[C@@H](CCCNC(=N)N)C(=O)N1CCC[C@H]1C(=O)N[C@@H](C)C(=O)N[C@H](C(N)=O)[C@@H](C)O)[C@@H](C)O)[C@@H](C)O (H-LLADTTHHRPAT-NH2)")
10.7
>>> observed_result("C[C@@H](O)[C@@H]1NC(=O)[C@H](Cc2c[nH]c3ccccc23)NC(=O)[C@@H]2CCCN2C(=O)[C@H](CCCNC(=N)N)NC(=O)[C@H](Cc2c[nH]cn2)NC(=O)[C@H](CCCCN)NC(=O)[C@H]([C@@H](C)O)NC1=O (cyclo(HRPWTTK))")
76.7

----------
Target Desc: CCN family member 2 (Homo sapiens) (UniProt P29279)
Sequence (P29279 whole entry, the tested form may be a part): as the sequence (P29279 whole entry, looked up, the tested form may be a part) above
Procedure Details: Inhibition of recombinant human CCN2 CT domain expressed in human […] cells assessed as reduction in fibronectin synthesis at 100 uM incubated for 24 hrs by Western blotting assay
Format: cell-based
Calls of active or inactive are those of the source. The calls are words filed in the database; no cut-off is given here. Peptide text beside a SMILES is read from it.
Labels: True = active, False = inactive

>>> label_class("C[C@@H](O)[C@H](NC(=O)[C@H](Cc1c[nH]c2ccccc12)NC(=O)[C@@H]1CCCN1C(=O)[C@H](CCCNC(=N)N)NC(=O)[C@H](Cc1c[nH]cn1)NC(=O)[C@H](Cc1c[nH]cn1)NC(=O)[C@@H](NC(=O)[C@@H](NC(=O)[C@@H](N)CC(=O)O)[C@@H](C)O)[C@@H](C)O)C(N)=O (H-DTTHHRPWT-NH2)")
"True"
>>> label_class("C[C@@H](O)[C@H](NC(=O)[C@H](Cc1c[nH]c2ccccc12)NC(=O)[C@@H]1CCCN1C(=O)[C@H](CCCNC(=N)N)NC(=O)[C@H](Cc1c[nH]cn1)NC(=O)[C@@H](N)Cc1c[nH]cn1)C(N)=O (H-HHRPWT-NH2)")
"False"
>>> label_class("C[C@@H](O)[C@H](N)C(=O)N[C@@H](Cc1c[nH]cn1)C(=O)N[C@@H](Cc1c[nH]cn1)C(=O)N[C@@H](CCCNC(=N)N)C(=O)N[C@@H](CCCCN)C(=O)N[C@@H](Cc1c[nH]c2ccccc12)C(=O)N[C@H](C(N)=O)[C@@H](C)O (H-THHRKWT-NH2)")
"False"
>>> label_class("C[C@@H](O)[C@H](N)C(=O)N[C@@H](Cc1c[nH]cn1)C(=O)N[C@@H](Cc1c[nH]cn1)C(=O)N[C@@H](CCCNC(=N)N)C(=O)N1CCC[C@H]1C(=O)N[C@@H](Cc1c[nH]c2ccccc12)C(=O)N[C@H](C(N)=O)[C@@H](C)O (H-THHRPWT-NH2)")
"True"
